- testDescription: Plasma pharmacokinetics after single oral dose of Δ8-THCV in MCT oil (LC-MS/MS, non-compartmental analysis)
- Assay type: in vivo, human
- assayConditions: human, plasma, oral, 12.5 mg, 4 h; 12.5 mg Δ8-THCV dose; Mean (SD, %CV)
- Method: The study was a two-phase, dose-ranging, placebo-controlled trial in 21 healthy participants to assess the safety, tolerability, PK, and PD of an oral formulation of Δ8-THCV. A detailed description of the study was published elsewhere. […] Plasma samples were analyzed using a validated high-performance liquid chromatography–tandem mass spectrometry (LC-MS/MS) assay. […] For the PK analysis, concentrations below the lower limit of quantification were set to 0 ng/mL. […]
// returns n unless concentration at 4 h is strictly below 0.7 ng/mL, in which case y

>  <compound>
CCCc1cc(O)c2c(c1)OC(C)(C)[C@@H]1CC=C(C(=O)O)C[C@@H]21

>  <assignedLabel>
n

$$$$
>  <compound>
CCCc1cc(O)c2c(c1)OC(C)(C)[C@@H]1CC=C(CO)C[C@@H]21 (racemic) [11-OH-Δ8-THCV, (±)-11-hydroxy-Δ8-THCV]

>  <assignedLabel>
y

$$$$
>  <compound>
CCCCCc1cc(O)c2c(c1)OC(C)(C)[C@@H]1CC=C(C(=O)O)CC21 (single isomer, unassigned; (+)) [Δ8-THC-COOH, (+)-11-nor-Δ8-THC-9-carboxylic acid]

>  <assignedLabel>
y

$$$$
>  <compound>
CCCc1cc(O)c2c(c1)OC(C)(C)[C@@H]1CCC(C)=C[C@@H]21 [Δ9-THCV, Δ9-tetrahydrocannabivarin]

>  <assignedLabel>
y

$$$$
>  <compound>
CCCc1cc(O)c2c(c1)OC(C)(C)[C@@H]1CCC(C(=O)O)=C[C@@H]21

>  <assignedLabel>
n

$$$$

###

- testDescription: Plasma pharmacokinetics after single oral dose of Δ8-THCV in MCT oil (LC-MS/MS, non-compartmental analysis)
- Type: in vivo, human
- assayConditions: human, plasma, oral, 50 mg, 8 h; 50 mg Δ8-THCV dose; Mean (SD, %CV)
- Experimental: The study was a two-phase, dose-ranging, placebo-controlled trial in 21 healthy participants to assess the safety, tolerability, PK, and PD of an oral formulation of Δ8-THCV. A detailed description of the study was published elsewhere. […] Plasma samples were analyzed using a validated high-performance liquid chromatography–tandem mass spectrometry (LC-MS/MS) assay. […] For the PK analysis, concentrations below the lower limit of quantification were set to 0 ng/mL. […]

>  <compound>
CCCc1cc(O)c2c(c1)OC(C)(C)[C@@H]1CCC(C)=C[C@@H]21 [Δ9-THCV, Δ9-tetrahydrocannabivarin]

>  <concentration at 8 h / ng/mL>
0

$$$$
>  <compound>
CCCc1cc(O)c2c(c1)OC(C)(C)[C@@H]1CCC(C(=O)O)=C[C@@H]21

>  <concentration at 8 h / ng/mL>
5.4

$$$$
>  <compound>
CCCc1cc(O)c2c(c1)OC(C)(C)[C@@H]1CC=C(C)C[C@@H]21 [Δ8-THCV, Δ8-tetrahydrocannabivarin]

>  <concentration at 8 h / ng/mL>
2.2

$$$$
>  <compound>
CCCc1cc(O)c2c(c1)OC(C)(C)[C@@H]1CC=C(C(=O)O)C[C@@H]21

>  <concentration at 8 h / ng/mL>
166

$$$$
>  <compound>
CCCc1cc(O)c2c(c1)OC(C)(C)[C@@H]1CC=C(CO)C[C@@H]21 (racemic) [11-OH-Δ8-THCV, (±)-11-hydroxy-Δ8-THCV]

>  <concentration at 8 h / ng/mL>
0.6

$$$$
>  <compound>
CCCCCc1cc(O)c2c(c1)OC(C)(C)[C@@H]1CC=C(C(=O)O)CC21 (single isomer, unassigned; (+)) [Δ8-THC-COOH, (+)-11-nor-Δ8-THC-9-carboxylic acid]

>  <concentration at 8 h / ng/mL>
0

$$$$

###

Quick reference for Clast (last quantifiable concentration) among some compounds
- testDescription: Plasma pharmacokinetics after single oral dose of Δ8-THCV in MCT oil (LC-MS/MS, non-compartmental analysis)
- Assay type: in vivo, human
- Design: unit not given here
- assayConditions: 200 mg single oral Δ8-THCV in MCT oil; plasma; Median (Range)

>  <compound>
CCCc1cc(O)c2c(c1)OC(C)(C)[C@@H]1CCC(C(=O)O)=C[C@@H]21 [Δ9-THCV-COOH, 11-nor-9-carboxy-Δ9-THCV]

>  <Clast (last quantifiable concentration)>
26.3 (10.9–63.8)

$$$$
>  <compound>
CCCCCc1cc(O)c2c(c1)OC(C)(C)[C@@H]1CC=C(C(=O)O)CC21 (single isomer, unassigned; (+)) [Δ8-THC-COOH, (+)-11-nor-Δ8-THC-9-carboxylic acid]

>  <Clast (last quantifiable concentration)>
1.8 (1.1–2.8)

$$$$
>  <compound>
CCCc1cc(O)c2c(c1)OC(C)(C)[C@@H]1CC=C(CO)C[C@@H]21 (racemic) [11-OH-Δ8-THCV, (±)-11-hydroxy-Δ8-THCV]

>  <Clast (last quantifiable concentration)>
3.1 (1.2–11.3)

$$$$

###

Quick reference for Tmax among some compounds
- testDescription: Plasma pharmacokinetics after single oral dose of Δ8-THCV in MCT oil (LC-MS/MS, non-compartmental analysis)
- Assay type: in vivo, human
- assayConditions: human, plasma, po, 12.5 mg, 12.5 mg single oral Δ8-THCV in MCT oil; plasma; Mean (±SD); read-out: tmax

>  <compound>
CCCc1cc(O)c2c(c1)OC(C)(C)[C@@H]1CCC(C(=O)O)=C[C@@H]21 [Δ9-THCV-COOH, 11-nor-9-carboxy-Δ9-THCV]

>  <Tmax>
5.1 h

$$$$
>  <compound>
CCCc1cc(O)c2c(c1)OC(C)(C)[C@@H]1CC=C(C)C[C@@H]21 [Δ8-THCV, Δ8-tetrahydrocannabivarin]

>  <Tmax>
3.9 h

$$$$
>  <compound>
CCCc1cc(O)c2c(c1)OC(C)(C)[C@@H]1CC=C(CO)C[C@@H]21 (racemic) [11-OH-Δ8-THCV, (±)-11-hydroxy-Δ8-THCV]

>  <Tmax>
3.4 h

$$$$
>  <compound>
CCCc1cc(O)c2c(c1)OC(C)(C)[C@@H]1CC=C(C(=O)O)C[C@@H]21 [Δ8-THCV-COOH, 11-nor-9-carboxy-Δ8-THCV]

>  <Tmax>
4.9 h

$$$$

###

- testDescription: Plasma pharmacokinetics after single oral dose of Δ8-THCV in MCT oil (LC-MS/MS, non-compartmental analysis)
- Assay type: in vivo, human
- assayConditions: human, plasma, oral, 100 mg, 8 h; 100 mg Δ8-THCV dose; Median (IQ Range)
Quick reference for concentration at 8 h among some compounds
assayMetric: concentration at 8 h (ng/mL)

>  <compound>
CCCc1cc(O)c2c(c1)OC(C)(C)[C@@H]1CC=C(CO)C[C@@H]21 (racemic) [11-OH-Δ8-THCV, (±)-11-hydroxy-Δ8-THCV]

>  <assayMetric>
concentration at 8 h

>  <numericReadout>
1.1

$$$$
>  <compound>
CCCc1cc(O)c2c(c1)OC(C)(C)[C@@H]1CCC(C(=O)O)=C[C@@H]21

>  <assayMetric>
concentration at 8 h

>  <numericReadout>
10.5

$$$$
>  <compound>
CCCc1cc(O)c2c(c1)OC(C)(C)[C@@H]1CC=C(C)C[C@@H]21 [Δ8-THCV, Δ8-tetrahydrocannabivarin]

>  <assayMetric>
concentration at 8 h

>  <numericReadout>
3.1

$$$$

###

- testDescription: Plasma pharmacokinetics after single oral dose of Δ8-THCV in MCT oil (LC-MS/MS, non-compartmental analysis)
- Type: in vivo, human
- assayConditions: human, plasma, po, 25 mg, 25 mg single oral Δ8-THCV in MCT oil; plasma; Mean (±SD); read-out: tmax

>  <compound>
CCCc1cc(O)c2c(c1)OC(C)(C)[C@@H]1CCC(C(=O)O)=C[C@@H]21 [Δ9-THCV-COOH, 11-nor-9-carboxy-Δ9-THCV]

>  <Tmax, h>
4.6

$$$$
>  <compound>
CCCc1cc(O)c2c(c1)OC(C)(C)[C@@H]1CC=C(C)C[C@@H]21 [Δ8-THCV, Δ8-tetrahydrocannabivarin]

>  <Tmax, h>
3.8

$$$$
>  <compound>
CCCc1cc(O)c2c(c1)OC(C)(C)[C@@H]1CC=C(CO)C[C@@H]21 (racemic) [11-OH-Δ8-THCV, (±)-11-hydroxy-Δ8-THCV]

>  <Tmax, h>
3.7

$$$$
>  <compound>
CCCc1cc(O)c2c(c1)OC(C)(C)[C@@H]1CC=C(C(=O)O)C[C@@H]21 [Δ8-THCV-COOH, 11-nor-9-carboxy-Δ8-THCV]

>  <Tmax, h>
4.6

$$$$

###

- testDescription: Plasma pharmacokinetics after single oral dose of Δ8-THCV in MCT oil (LC-MS/MS, non-compartmental analysis)
- Format: in vivo, human
- assayConditions: human, plasma, po, 100 mg, 100 mg single oral Δ8-THCV in MCT oil; plasma; Mean (±SD); read-out: MRT (mean residence time)
- Experimental: The study was a two-phase, dose-ranging, placebo-controlled trial in 21 healthy participants to assess the safety, tolerability, PK, and PD of an oral formulation of Δ8-THCV. A detailed description of the study was published elsewhere. […] Plasma samples were analyzed using a validated high-performance liquid chromatography–tandem mass spectrometry (LC-MS/MS) assay. […] For the PK analysis, concentrations below the lower limit of quantification were set to 0 ng/mL. […]
Quick reference for MRT among some compounds

>  <compound>
CCCc1cc(O)c2c(c1)OC(C)(C)[C@@H]1CCC(C(=O)O)=C[C@@H]21

>  <scaleUnit>
h

>  <MRT>
4.9

$$$$
>  <compound>
CCCCCc1cc(O)c2c(c1)OC(C)(C)[C@@H]1CC=C(C(=O)O)CC21 (single isomer, unassigned; (+)) [Δ8-THC-COOH, (+)-11-nor-Δ8-THC-9-carboxylic acid]

>  <scaleUnit>
h

>  <MRT>
5.2

$$$$
>  <compound>
CCCc1cc(O)c2c(c1)OC(C)(C)[C@@H]1CC=C(C)C[C@@H]21 [Δ8-THCV, Δ8-tetrahydrocannabivarin]

>  <scaleUnit>
h

>  <MRT>
4.5

$$$$
>  <compound>
CCCc1cc(O)c2c(c1)OC(C)(C)[C@@H]1CCC(C)=C[C@@H]21 [Δ9-THCV, Δ9-tetrahydrocannabivarin]

>  <scaleUnit>
h

>  <MRT>
4.4

$$$$
>  <compound>
CCCc1cc(O)c2c(c1)OC(C)(C)[C@@H]1CC=C(CO)C[C@@H]21 (racemic) [11-OH-Δ8-THCV, (±)-11-hydroxy-Δ8-THCV]

>  <scaleUnit>
h

>  <MRT>
4.6

$$$$
>  <compound>
CCCc1cc(O)c2c(c1)OC(C)(C)[C@@H]1CC=C(C(=O)O)C[C@@H]21

>  <scaleUnit>
h

>  <MRT>
4.8

$$$$
